experimental_target: Cannabinoid receptor 1 (Homo sapiens, UniProt P21554)
Sequence (P21554 whole entry): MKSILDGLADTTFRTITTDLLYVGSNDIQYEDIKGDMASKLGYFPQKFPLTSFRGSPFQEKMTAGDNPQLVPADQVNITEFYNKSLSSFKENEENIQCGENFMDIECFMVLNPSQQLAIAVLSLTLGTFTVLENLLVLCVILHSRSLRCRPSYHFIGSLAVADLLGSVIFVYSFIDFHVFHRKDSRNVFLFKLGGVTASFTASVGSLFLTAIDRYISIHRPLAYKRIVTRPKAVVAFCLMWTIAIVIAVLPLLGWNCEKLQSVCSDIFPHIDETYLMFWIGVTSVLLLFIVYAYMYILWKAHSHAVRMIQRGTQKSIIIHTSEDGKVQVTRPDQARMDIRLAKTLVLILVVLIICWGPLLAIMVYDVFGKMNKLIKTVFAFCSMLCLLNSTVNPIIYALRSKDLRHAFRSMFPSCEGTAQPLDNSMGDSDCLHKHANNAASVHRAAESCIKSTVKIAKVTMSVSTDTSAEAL
measurement_notes: Displacement of [3H]CP,55-940 from recombinant human CB1 receptor expressed in HEK293 EBNA cell membranes after 90 mins by microbeta scintillation counting method
condition_notes: read-out: Ki
Field: Ki. Provide a value for each of the compounds that follow.

Quick note, Ki for Cc1ccc(-c2cc(S(=O)(=O)NCC3CCC4CC3C4(C)C)nnc2-c2ccc(C)cc2)cc1 (stereo not drawn) landed at > 10 µM

Quick note, Ki for Cc1ccc(-c2cc(S(=O)(=O)NC3CC(C)CCC3C(C)C)nnc2-c2ccc(C)cc2)cc1 (stereo not drawn) landed at > 10 µM

Quick note, Ki for Cc1ccc(Cn2nc(-c3ccc(C)cc3)cc(SNC3CCCCCC3)c2=O)cc1 landed at > 40 µM
